All figures here come from the NIST ThermoML archive (doi:10.1021/je900672g).

- EXPERIMENT_NOTES: isobaric coefficient of expansion
- ASSAY_SETUP: 308.15 K; 5000 kPa; Liquid; DSC
isobaric coefficient of expansion reference
OBSERVATION_TYPE: isobaric coefficient of expansion

> print(dat)
       structure.string                   observation.type  reported.value
1                 CCC#N  isobaric coefficient of expansion      0.0013 1/K
2         C[N+](=O)[O-]  isobaric coefficient of expansion     0.00123 1/K
3           N#Cc1ccccc1  isobaric coefficient of expansion    0.000852 1/K
4        CC[N+](=O)[O-]  isobaric coefficient of expansion     0.00117 1/K
5  O=[N+]([O-])c1ccccc1  isobaric coefficient of expansion    0.000827 1/K
6       CCC[N+](=O)[O-]  isobaric coefficient of expansion     0.00109 1/K

----------
- EXPERIMENT_NOTES: isobaric coefficient of expansion
- ASSAY_SETUP: 278.15 K; 25000 kPa; Liquid; DSC
OBSERVATION_TYPE: isobaric coefficient of expansion

> print(dat)
   structure.string                   observation.type  reported.value
1             CCC#N  isobaric coefficient of expansion     0.00111 1/K
2     C[N+](=O)[O-]  isobaric coefficient of expansion     0.00108 1/K
3    CC[N+](=O)[O-]  isobaric coefficient of expansion     0.00104 1/K
4       N#Cc1ccccc1  isobaric coefficient of expansion    0.000795 1/K
5   CCC[N+](=O)[O-]  isobaric coefficient of expansion    0.000966 1/K

----------
- EXPERIMENT_NOTES: isobaric coefficient of expansion
- ASSAY_SETUP: 308.15 K; 50000 kPa; Liquid; DSC
OBSERVATION_TYPE: isobaric coefficient of expansion

> print(dat)
       structure.string                   observation.type  reported.value
1  O=[N+]([O-])c1ccccc1  isobaric coefficient of expansion    0.000719 1/K
2         C[N+](=O)[O-]  isobaric coefficient of expansion     0.00102 1/K
3           N#Cc1ccccc1  isobaric coefficient of expansion    0.000743 1/K
4       CCC[N+](=O)[O-]  isobaric coefficient of expansion    0.000891 1/K
5        CC[N+](=O)[O-]  isobaric coefficient of expansion    0.000961 1/K
6                 CCC#N  isobaric coefficient of expansion     0.00101 1/K

----------
- EXPERIMENT_NOTES: isobaric coefficient of expansion
- ASSAY_SETUP: 338.15 K; 50000 kPa; Liquid; DSC
List of isobaric coefficient of expansion values.
OBSERVATION_TYPE: isobaric coefficient of expansion

> print(dat)
       structure.string                   observation.type  reported.value
1         C[N+](=O)[O-]  isobaric coefficient of expansion     0.00103 1/K
2  O=[N+]([O-])c1ccccc1  isobaric coefficient of expansion    0.000715 1/K
3        CC[N+](=O)[O-]  isobaric coefficient of expansion    0.000964 1/K
4                 CCC#N  isobaric coefficient of expansion     0.00102 1/K
5       CCC[N+](=O)[O-]  isobaric coefficient of expansion    0.000894 1/K
6           N#Cc1ccccc1  isobaric coefficient of expansion    0.000738 1/K
